Organism: Oryctolagus cuniculus
test-protocol: in vitro inhibitory activity on soybean lipoxygenase-induced lipid peroxidations of rabbit low-density lipoprotein (LDL) at 5 uM dosage.
Type: functional, organism-based
recorded-metric: LDL oxidation (%)
Record the value in %, omitting the unit from your answer.

// query LDL oxidation value for entry CN(CCCN1C(=S)CSC1c1cc(C(C)(C)C)c(O)c(C(C)(C)C)c1)CCOc1ccc2c(c1)OCO2 (centres undefined) 11.3

// query LDL oxidation value for entry CN(CCCN1C(=O)CSC1c1cc(C(C)(C)C)c(O)c(C(C)(C)C)c1)CCOc1ccc2c(c1)OCO2 (single isomer, unassigned; (+)) 5.9

// query LDL oxidation value for entry CN(CCCN1C(=O)CSC1c1cc(C(C)(C)C)c(O)c(C(C)(C)C)c1)CCOc1ccc2c(c1)OCO2 (single isomer, unassigned; (-)) 3.9

// query LDL oxidation value for entry COc1c(C(C)(C)C)cc(C2SCC(=O)N2CCCN(C)CCOc2ccc3c(c2)OCO3)cc1C(C)(C)C (centres undefined) 39.7
